Heads up, these molecules all have AC50 values measured for Neuropeptide Y receptor type 1 (Homo sapiens, UniProt P25929).

Kindly indicate its recorded AC50. Item: C[C@]12C=CC(=O)C=C1CC[C@@H]1[C@@H]2CC[C@]2(C)OC(=O)CC[C@@H]12 [TESTOLACTONE]
> 10 µM

Specify AC50 for CC(C)[C@H](N)C(=O)OCCOCn1cnc2c(=O)[nH]c(N)nc21 [VALACYCLOVIR] and stop.
> 30 µM

Write down AC50 measured for item CC(=O)O[C@]1(C(C)=O)CC[C@H]2[C@@H]3C=C(Cl)C4=CC(=O)[C@@H]5C[C@@H]5[C@]4(C)[C@H]3CC[C@@]21C [CYPROTERONE ACETATE]
> 30 µM

For the molecule CCC1(c2ccc(N)cc2)CCC(=O)NC1=O (centres undefined) [AMINOGLUTETHIMIDE] , give its measured AC50 value.
> 30 µM

---

Exercise: state measured AC50 for each of the molecules provided.
Target Or System: Alpha-1A adrenergic receptor (Homo sapiens, UniProt P35348); note: assay procedure not described here
Sequence (P35348 whole entry): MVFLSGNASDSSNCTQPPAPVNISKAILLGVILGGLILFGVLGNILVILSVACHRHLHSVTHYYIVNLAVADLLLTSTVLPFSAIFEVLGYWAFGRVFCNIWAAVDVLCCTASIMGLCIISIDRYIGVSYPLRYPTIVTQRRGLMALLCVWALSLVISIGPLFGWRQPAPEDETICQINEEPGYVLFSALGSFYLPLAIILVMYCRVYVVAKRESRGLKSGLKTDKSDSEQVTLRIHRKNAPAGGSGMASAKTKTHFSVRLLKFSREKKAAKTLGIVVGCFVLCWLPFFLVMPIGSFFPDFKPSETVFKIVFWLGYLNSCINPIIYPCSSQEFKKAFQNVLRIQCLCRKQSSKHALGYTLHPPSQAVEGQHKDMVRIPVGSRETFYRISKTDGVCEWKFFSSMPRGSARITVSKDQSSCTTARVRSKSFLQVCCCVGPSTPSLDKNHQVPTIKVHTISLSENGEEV
Type: functional, cell-based

Please indicate recorded AC50 of C[C@@H]1C[C@H]2[C@@H]3C[C@H](F)C4=CC(=O)C=C[C@]4(C)[C@@]3(F)[C@@H](O)C[C@]2(C)[C@@]1(OC(=O)c1ccco1)C(=O)SCF [FLUTICASONE FUROATE] measured with Alpha-1A adrenergic receptor (Homo sapiens, UniProt P35348).
> 30 µM

Give the observed AC50 of COC(=O)[C@@H](N)Cc1ccc(O)c(O)c1 for Alpha-1A adrenergic receptor (Homo sapiens, UniProt P35348).
> 30 µM

Send back Alpha-1A adrenergic receptor (Homo sapiens, UniProt P35348) AC50 of C[C@@H]1C[C@H]2[C@@H]3C[C@H](F)C4=CC(=O)C=C[C@]4(C)[C@H]3[C@@H](O)C[C@]2(C)[C@@]1(O)C(=O)CO only.
> 30 µM

Specify the recorded AC50 for Nc1c(CC(=O)O)cccc1C(=O)c1ccc(Br)cc1 , system: Alpha-1A adrenergic receptor (Homo sapiens, UniProt P35348). Note: assay procedure not described here.
> 30 µM

Report AC50 from Alpha-1A adrenergic receptor (Homo sapiens, UniProt P35348) testing of COc1cc(C)c2c(Oc3cccc(C(F)(F)F)c3)c(OC)cc(NC(C)CCCN)c2n1 (configuration not stated)
> 3 µM

Tell me its AC50 on Alpha-1A adrenergic receptor (Homo sapiens, UniProt P35348): CC(=O)[C@]1(N)Cc2c(O)c3c(c(O)c2[C@@H](O[C@H]2C[C@H](O)[C@H](O)CO2)C1)C(=O)c1ccccc1C3=O
20.1 µM

Report AC50 on Alpha-1A adrenergic receptor (Homo sapiens, UniProt P35348) for this entry: C[C@H](N[C@@H](CCc1ccccc1)C(=O)O)C(=O)N1Cc2ccccc2C[C@H]1C(=O)O
> 30 µM

---

Provide the reported AC50 of each item.
Target Or System: 5-hydroxytryptamine receptor 1A (Homo sapiens, UniProt P08908); note: assay procedure not described here
Sequence (P08908 whole entry): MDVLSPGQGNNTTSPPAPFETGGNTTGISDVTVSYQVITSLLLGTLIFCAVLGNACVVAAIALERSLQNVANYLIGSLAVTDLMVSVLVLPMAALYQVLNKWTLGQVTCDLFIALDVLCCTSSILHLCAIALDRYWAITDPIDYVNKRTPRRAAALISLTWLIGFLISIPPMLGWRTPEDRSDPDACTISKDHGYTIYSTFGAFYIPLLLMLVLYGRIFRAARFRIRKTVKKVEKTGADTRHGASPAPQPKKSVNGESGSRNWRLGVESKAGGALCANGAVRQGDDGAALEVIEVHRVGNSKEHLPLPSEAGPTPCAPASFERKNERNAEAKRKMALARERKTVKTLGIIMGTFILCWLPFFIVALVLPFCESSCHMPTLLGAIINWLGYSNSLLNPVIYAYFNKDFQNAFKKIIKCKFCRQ
Type: functional, cell-based

Param request: AC50 | system 5-hydroxytryptamine receptor 1A (Homo sapiens, UniProt P08908) | item CC/C=C\C/C=C\C/C=C\C/C=C\C/C=C\CCCC(=O)OCC; note: assay procedure not described here
> 30 µM

Report the value of AC50 obtained on 5-hydroxytryptamine receptor 1A (Homo sapiens, UniProt P08908) for CCOC(=O)c1ncn2c1CN(C)C(=O)c1cc(F)ccc1-2 .
> 30 µM

Report AC50 from 5-hydroxytryptamine receptor 1A (Homo sapiens, UniProt P08908) testing of Cc1cc(C)nc(NS(=O)(=O)c2ccc(N)cc2)n1
> 10 µM

Specify the recorded AC50 for CCN1CCCC1CNC(=O)c1cc(S(=O)(=O)CC)ccc1OC (stereo not drawn) [SULTOPRIDE] , system: 5-hydroxytryptamine receptor 1A (Homo sapiens, UniProt P08908). Note: assay procedure not described here.
> 30 µM

Please indicate recorded AC50 of O=C(O)c1ccc(NC(=O)[C@H](Cc2ccc(O)cc2)NC(=O)c2ccccc2)cc1 [BENTIROMIDE] measured with 5-hydroxytryptamine receptor 1A (Homo sapiens, UniProt P08908).
> 10 µM

Check 5-hydroxytryptamine receptor 1A (Homo sapiens, UniProt P08908) data and give AC50 for CN[C@]1(c2ccccc2Cl)CCCCC1=O .
> 30 µM

Consider the molecule C=C1c2cccc(O)c2C(=O)C2=C(O)[C@]3(O)C(=O)C(C(N)=O)=C(O)[C@@H](N(C)C)[C@@H]3[C@@H](O)[C@H]12 tested on 5-hydroxytryptamine receptor 1A (Homo sapiens, UniProt P08908); state its AC50. Note: assay procedure not described here.
> 10 µM

Param request: AC50 | system 5-hydroxytryptamine receptor 1A (Homo sapiens, UniProt P08908) | item Cn1c(=O)c2c(ncn2CCOC(=O)C(C)(C)Oc2ccc(Cl)cc2)n(C)c1=O [THEOFIBRATE]; note: assay procedure not described here
> 30 µM

Recall the reported AC50 of O=C1Cc2cc(CCN3CCN(c4nsc5ccccc45)CC3)c(Cl)cc2N1 on 5-hydroxytryptamine receptor 1A (Homo sapiens, UniProt P08908) and write it down.
0.95 µM

Supply AC50 measured with 5-hydroxytryptamine receptor 1A (Homo sapiens, UniProt P08908) for COc1cc(N)c(Cl)cc1C(=O)NC1CCN(CCCOc2ccc(F)cc2)CC1OC (stereo not drawn) [CISAPRIDE] .
> 10 µM

Supply AC50 measured with 5-hydroxytryptamine receptor 1A (Homo sapiens, UniProt P08908) for O=C(c1cc(Cc2n[nH]c(=O)c3ccccc23)ccc1F)N1CCN(C(=O)C2CC2)CC1 .
> 10 µM

Provide AC50, recorded with 5-hydroxytryptamine receptor 1A (Homo sapiens, UniProt P08908), of CCC1(CCC(C)C)C(=O)NC(=O)NC1=O
> 10 µM

// fetch AC50; item: CC(C)(Oc1ccc(CCNC(=O)c2ccc(Cl)cc2)cc1)C(=O)O [BEZAFIBRATE] ; system: 5-hydroxytryptamine receptor 1A (Homo sapiens, UniProt P08908); note: assay procedure not described here
> 30 µM

Specify the recorded AC50 for CC[C@@H](CO)NC(=O)[C@@H]1C=C2c3cccc4c3c(cn4C)C[C@H]2N(C)C1 [METHYSERGIDE] , system: 5-hydroxytryptamine receptor 1A (Homo sapiens, UniProt P08908). Note: assay procedure not described here.
0.2 µM

With 5-hydroxytryptamine receptor 1A (Homo sapiens, UniProt P08908) as the test system, provide measured AC50 for this molecule: C/C=C(/C(=C/C)c1ccc(O)cc1)c1ccc(O)cc1
> 10 µM

Write down measured AC50 (5-hydroxytryptamine receptor 1A (Homo sapiens, UniProt P08908)) for this molecule. CC1=C(C(=O)OC(C)C)C(c2cccc([N+](=O)[O-])c2)C(C(=O)OC2CN(C(c3ccccc3)c3ccccc3)C2)=C(N)N1 (stereo not drawn)
> 30 µM

Under 5-hydroxytryptamine receptor 1A (Homo sapiens, UniProt P08908), report AC50 for CC(C)Cc1ccc([C@H](C)C(=O)O)cc1
> 30 µM

# lookup: 5-hydroxytryptamine receptor 1A (Homo sapiens, UniProt P08908) AC50, key = COc1ccc(CN2CCN(C(c3ccc(F)cc3)c3ccc(F)cc3)CC2)c(OC)c1OC
> 30 µM

---

Can you tell me AC50 for the items I'm about to list?
Target Or System: Type-1 angiotensin II receptor (Homo sapiens, UniProt P30556); note: assay procedure not described here
Sequence (P30556 whole entry): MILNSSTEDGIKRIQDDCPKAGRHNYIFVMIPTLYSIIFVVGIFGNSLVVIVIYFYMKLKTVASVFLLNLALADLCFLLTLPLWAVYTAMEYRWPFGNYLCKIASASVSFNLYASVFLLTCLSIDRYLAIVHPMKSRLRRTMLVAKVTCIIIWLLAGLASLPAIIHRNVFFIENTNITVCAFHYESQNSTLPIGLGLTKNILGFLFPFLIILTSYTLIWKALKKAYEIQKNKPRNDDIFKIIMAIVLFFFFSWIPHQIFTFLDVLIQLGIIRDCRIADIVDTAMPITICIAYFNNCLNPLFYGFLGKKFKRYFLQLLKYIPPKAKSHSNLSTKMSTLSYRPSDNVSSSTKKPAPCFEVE

Fill in AC50 for record O=C1OC(OC(=O)c2cccnc2Nc2cccc(C(F)(F)F)c2)c2ccccc21 (stereo not drawn) [TALNIFLUMATE]
> 30 µM

# return recorded AC50 for input CCc1nc(N)nc(N)c1-c1ccc(Cl)cc1
> 10 µM

Supply recorded AC50 for CN(C)C/C=C/C(=O)Nc1cc2c(Nc3ccc(F)c(Cl)c3)ncnc2cc1O[C@H]1CCOC1 here.
> 30 µM

Specify measured AC50 for CCCC(C)(COC(N)=O)COC(N)=O [MEPROBAMATE] .
> 10 µM

// fetch AC50 given entry CC1(C)S[C@@H]2[C@H](NC(=O)C(C(=O)O)c3ccccc3)C(=O)N2[C@H]1C(=O)O (stereo partly drawn)
> 30 µM

State its AC50 for this compound: CCCc1cc(=O)[nH]c(=S)[nH]1
> 10 µM

Tell us which AC50 value is on record for CC(=O)O[C@]1(C(C)=O)CC[C@H]2[C@@H]3C=C(Cl)C4=CC(=O)[C@@H]5C[C@@H]5[C@]4(C)[C@H]3CC[C@@]21C [CYPROTERONE ACETATE]
> 30 µM

Using the record for COC(=O)C1=C(C)NC(C)=C(C(=O)OCCN2CCN(C(c3ccccc3)c3ccccc3)CC2)C1c1cccc([N+](=O)[O-])c1 (stereo not drawn) , state its measured AC50.
> 30 µM
